assay: Brain uptake procedure, LCMS of brain and plasma; format: in vivo, mice (Tg6799 colony with B6/SJL background); details: Tg6799 colony with B6/SJL background, mouse, brain/plasma, intraperitoneal, 1 mg/kg, 1 mg/kg i.p., 10 minutes, single mice; read-out: Brain/plasma Ratio July
attribute-measured: Kp at 10 min
Numbers only.

Request: Give the value of Kp at 10 min reported for the following: O=c1cc(COc2cc(Cl)cc(Cl)c2)[nH][nH]1
Response: 2.84

* * *

assay: In vitro microsomal stability, mouse; type: in vitro ADME; details: mouse, liver microsomes, Mouse, NADPH-dependent; read-out: CLint (microsomal intrinsic clearance)
attribute-measured: microsomal CLint (µL/min/mg)
Numbers only, in µL/min/mg.

CN(Cc1cc(=O)[nH][nH]1)c1cc(Cl)cc(Cl)c1 | 93

Could you now consider this next compound?
Request: Tell me its microsomal CLint given O=c1cc(CNc2cc(Cl)cc(Cl)c2)[nH][nH]1 [Compound 2, reference compound] as the entry.
Response: 78

* * *

experiment: In vitro plasma stability; type: in vitro ADME; details: plasma; read-out: plasma stability T1/2
attribute-measured: half-life (min)
Give bare numbers, in min.

Request: Respond only with half-life recorded for O=c1cc(COc2cc(Cl)cc(Cl)c2)[nH][nH]1
Response: 17

* * *

tested on: PC12 cells that express mutant G93A SOD1; test: Mutant SOD1-induced cytotoxicity protection assay; conditions: Rattus norvegicus, PC-12, read-out: EC50 after Normalization, normalised with the corresponding 3299 EC50
Rule: measured EC50 below 2000 nM gets MET; anything equal to or greater than 2000 nM gets NOT MET.

Recorded results for 5 compounds are shown here.
O=c1cc(COc2cc(Br)cc(Br)c2)[nH][nH]1 | MET
CC(C)c1ccccc1SCc1cc(=O)[nH][nH]1 | MET
O=c1cc(CSc2cc(Cl)cc(Cl)c2)[nH][nH]1 | MET
Cc1cc([S+]([O-])Cc2cc(=O)[nH][nH]2)c(C)cc1Cl (centres unmarked) | NOT MET
O=c1cc(COc2cc(C(F)(F)F)cc(C(F)(F)F)c2)[nH][nH]1 | MET

Request: Could you please tell me whether EC50 recorded for O=c1cc(CSc2ccc(Cl)cc2)[nH][nH]1 is less than 2000 nM?
Response: MET

Request: Is EC50 of O=c1cc(CSc2ccc([N+](=O)[O-])cc2)[nH][nH]1 strictly below 2000 nM?
Response: NOT MET

Request: Lab note: confirm whether the reported EC50 for this compound is below 2000 nM, equality not counting. compound: O=c1cc(CSc2ccc(Cl)c(Cl)c2)[nH][nH]1
Response: MET

Request: Determine if O=c1cc(COc2cc(-c3ccccc3)cc(-c3ccccc3)c2)[nH][nH]1 shows EC50 strictly lower than 2000 nM.
Response: NOT MET

Request: Given the entry CCCCc1ccc(S(=O)(=O)Cc2cc(=O)[nH][nH]2)cc1 , would its reported EC50 be below 2000 nM?
Response: MET

Request: Does O=c1cc(CSc2c(Cl)cccc2Cl)[nH][nH]1 have EC50 strictly under 2000 nM?
Response: MET

Request: In the record for O=c1cc(COc2ccc(Cl)cc2)[nH][nH]1 , is EC50 less than 2000 nM?
Response: MET

Request: Criterion: EC50 strictly below 2000 nM. Is it met by O=c1cc(CS(=O)(=O)c2ccc(Cl)cc2)[nH][nH]1 ?
Response: NOT MET

Request: Just wondering, is EC50 of CC(C)(C)c1ccc(SCc2cc(=O)[nH][nH]2)cc1 below 2000 nM?
Response: NOT MET

Request: For CC(C)c1ccc(S(=O)(=O)Cc2cc(=O)[nH][nH]2)cc1 , is the recorded EC50 below the cut-off of 2000 nM?
Response: MET

Request: Criterion: EC50 strictly below 2000 nM. Is it met by O=c1cc(CN(c2cc(Cl)cc(Cl)c2)S(=O)(=O)c2ccccc2)[nH][nH]1 ?
Response: MET

Request: Regarding CCc1ccc(S(=O)(=O)Cc2cc(=O)[nH][nH]2)cc1 , kindly confirm whether its EC50 is beneath 2000 nM.
Response: MET

Request: Given the entry Cn1[nH]c(COc2cc(Cl)cc(C(F)(F)F)c2)cc1=O , would its reported EC50 be below 2000 nM?
Response: NOT MET

Request: Problem: For the compound O=c1cc(COc2cccc(-c3ccccc3)c2)[nH][nH]1 , is EC50 under 2000 nM?
Response: NOT MET

* * *

tested on: PC12 cells that express mutant G93A SOD1; test: Mutant SOD1-induced cytotoxicity protection assay
attribute-measured: activity in the cytotoxicity protection assay, in words

Use the examples below as a reference point.
CN(Cc1cc(=O)n(C)n1C)c1cc(Cl)cc(Cl)c1 | devoid of activity
CN1N=C(CN(C)c2cc(Cl)cc(Cl)c2)C(C)(C)C1=O | devoid of activity
Cc1c(CN(C)c2cc(Cl)cc(Cl)c2)n(C)n(C)c1=O | devoid of activity
CN(Cc1cc(=O)[nH]n1C)c1cc(Cl)cc(Cl)c1 | devoid of activity
O=c1[nH][nH]c2c1CN(c1cc(Cl)cc(Cl)c1)CC2 | active

Request: Supply activity in the cytotoxicity protection assay, in words value. Item: CN(CCCc1cc(=O)[nH][nH]1)c1cc(Cl)cc(Cl)c1
Response: active

* * *

system: PC12 cells that express mutant G93A SOD1; assay: Mutant SOD1-induced cytotoxicity protection assay; details: rat, 48 h
attribute-measured: Corresponding % viability (%)
Numbers only, in %.

O=c1cc(CNc2cc(Cl)cc(Cl)c2)[nH][nH]1 | 128
O=c1cc(CS(=O)(=O)c2ccc(Cl)cc2)[nH][nH]1 | 110
Cc1cc(SCc2cc(=O)[nH][nH]2)c(C)cc1Cl | 140
O=c1cc(COc2cccc(Br)c2)[nH][nH]1 | 144
O=c1cc(CSc2ccc(Cl)cc2Cl)[nH][nH]1 | 124

Lab note: each compound below needs its Corresponding % viability filled in.
1. CC(C)(C)c1cccc(OCc2cc(=O)[nH][nH]2)c1
2. CN(C)c1ccc(SCc2cc(=O)[nH][nH]2)cc1
3. O=c1cc(CS(=O)(=O)c2cc(Cl)cc(Cl)c2)[nH][nH]1 [CMB-087235-2]

Response:
1. 141
2. 77
3. 132

Provide Corresponding % viability values for the following items, in order.
1. O=c1cc(COc2ccc(Cl)cc2)[nH][nH]1 [CMB-086902-3]
2. O=c1cc(CSc2cc(Cl)cc(Cl)c2)[nH][nH]1 [CMB-086835-2]

Response:
1: 120; 2: 129

Hi there! I need Corresponding % viability for each item below, if you can.
1. O=c1cc(COc2ccc(Cl)cc2)[nH][nH]1 [CMB-086902-2]
2. O=c1cc(COc2ccc(Cl)cc2)[nH][nH]1 [CMB-086902-1]
3. O=c1cc(CN(c2cc(Cl)cc(Cl)c2)S(=O)(=O)c2ccccc2)[nH][nH]1
4. CCc1ccc(S(=O)(=O)Cc2cc(=O)[nH][nH]2)cc1
5. O=c1cc(CSc2ccc(Cl)cc2)[nH][nH]1 [CMB-086836-1]

Response:
1: 117; 2: 131; 3: 111; 4: 101; 5: 75

Provide reported Corresponding % viability for each item, in the same order as listed.
1. O=c1cc(CSc2ccccc2)[nH][nH]1
2. O=c1cc(COc2cccc(-c3ccccc3)c2)[nH][nH]1
3. O=c1cc(CSc2ccc(F)cc2Cl)[nH][nH]1

Response:
1: 77; 2: 96; 3: 68

Answer for every listed entry: what is its Corresponding % viability? The entries follow.
1. CC(C)(C)c1ccc(SCc2cc(=O)[nH][nH]2)cc1
2. O=c1cc(CSc2ccc(F)cc2)[nH][nH]1

Response:
[150, 104]

* * *

assay: in vivo; conditions: mouse, concentration in the brain
attribute-measured: concentration at 4 h (µM)
Answers are plain numbers, in µM.

Request: Using the record for O=c1cc(COc2cc(Cl)cc(Cl)c2)[nH][nH]1 [CMB-087229] , state its measured concentration at 4 h.
Response: 194

* * *

assay: in vivo; conditions: mouse
attribute-measured: Kp

Request: Report measured Kp; entry is O=c1cc(COc2cc(Cl)cc(Cl)c2)[nH][nH]1
Response: ~0.55

* * *

test: In vitro microsomal stability, human; format: in vitro ADME; details: human, human liver microsomes; read-out: human metabolic potential T1/2
attribute-measured: half-life (min)
One number for each entry, in min.

Request: Given O=c1cc(COc2cc(Cl)cc(Cl)c2)[nH][nH]1 , respond with its half-life.
Response: 93

* * *

system: PC12 cells that express mutant G93A SOD1; assay: Mutant SOD1-induced cytotoxicity protection assay; conditions: rat, 48 h
attribute-measured: Corresponding % viability (%)
Give bare numbers, in %.

O=c1cc(CSc2ccc(Br)cc2)[nH][nH]1 | 94
O=c1cc(COc2ccc(Cl)c(Cl)c2)[nH][nH]1 | 136
O=c1cc(COc2cc(F)cc(F)c2)[nH][nH]1 | 125

Parameter requested: Corresponding % viability. Apply to each item below.
1. O=c1cc(COc2cc(Br)cc(Br)c2)[nH][nH]1
2. CC(C)c1ccccc1SCc1cc(=O)[nH][nH]1
3. Cc1cc(S(=O)(=O)Cc2cc(=O)[nH][nH]2)c(C)cc1Cl

Response:
1: 125; 2: 106; 3: 116

Request: Please indicate Corresponding % viability recorded for CCc1ccccc1SCc1cc(=O)[nH][nH]1
Response: 106
